Below, each of the variants is paired with its reported normalized RNA/DNA level without ligand (log10) value.
B1: library; a variant is named by its letters at N, in order (parent)
chain: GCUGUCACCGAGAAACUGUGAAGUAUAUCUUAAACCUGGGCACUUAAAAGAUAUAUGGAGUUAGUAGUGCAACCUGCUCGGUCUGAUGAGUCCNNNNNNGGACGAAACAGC

variants of: B1; test: normalized RNA/DNA level without ligand (relative to sTRSVctl = 100) (log10 (% of sTRSVctl)); HEK293T; ligand: cyclic di-GMP (c-di-GMP-II aptamer); higher = less ribozyme self-cleavage, higher mRNA level; settings: reporter: mCherry (pCS4076), ligand present: no
I'd appreciate a reply containing only the number, no unit.

Here's what some known entries look like.
GCUGUCACCGAGAAACUGUGAAGUAUAUCUUAAACCUGGGCACUUAAAAGAUAUAUGGAGUUAGUAGUGCAACCUGCUCGGUCUGAUGAGUCCUGACGUGGACGAAACAGC [UGACGU]: 1.57
GCUGUCACCGAGAAACUGUGAAGUAUAUCUUAAACCUGGGCACUUAAAAGAUAUAUGGAGUUAGUAGUGCAACCUGCUCGGUCUGAUGAGUCCGUUGAGGGACGAAACAGC [GUUGAG]: 1.55
GCUGUCACCGAGAAACUGUGAAGUAUAUCUUAAACCUGGGCACUUAAAAGAUAUAUGGAGUUAGUAGUGCAACCUGCUCGGUCUGAUGAGUCCGUAGUGGGACGAAACAGC [GUAGUG]: 1.74
GCUGUCACCGAGAAACUGUGAAGUAUAUCUUAAACCUGGGCACUUAAAAGAUAUAUGGAGUUAGUAGUGCAACCUGCUCGGUCUGAUGAGUCCAUACCCGGACGAAACAGC [AUACCC]: 1.75
GCUGUCACCGAGAAACUGUGAAGUAUAUCUUAAACCUGGGCACUUAAAAGAUAUAUGGAGUUAGUAGUGCAACCUGCUCGGUCUGAUGAGUCCCACAGGGGACGAAACAGC [CACAGG]: 1.68
GCUGUCACCGAGAAACUGUGAAGUAUAUCUUAAACCUGGGCACUUAAAAGAUAUAUGGAGUUAGUAGUGCAACCUGCUCGGUCUGAUGAGUCCUAGCCUGGACGAAACAGC [UAGCCU]: 1.73

*Q* Respond only with normalized RNA/DNA level without ligand (log10) recorded for GCUGUCACCGAGAAACUGUGAAGUAUAUCUUAAACCUGGGCACUUAAAAGAUAUAUGGAGUUAGUAGUGCAACCUGCUCGGUCUGAUGAGUCCCCGGCCGGACGAAACAGC [CCGGCC]
*A* 1.77

*Q* Respond only with normalized RNA/DNA level without ligand (log10) recorded for GCUGUCACCGAGAAACUGUGAAGUAUAUCUUAAACCUGGGCACUUAAAAGAUAUAUGGAGUUAGUAGUGCAACCUGCUCGGUCUGAUGAGUCCCCGCUGGGACGAAACAGC [CCGCUG]
*A* 1.28

*Q* Respond only with normalized RNA/DNA level without ligand (log10) recorded for GCUGUCACCGAGAAACUGUGAAGUAUAUCUUAAACCUGGGCACUUAAAAGAUAUAUGGAGUUAGUAGUGCAACCUGCUCGGUCUGAUGAGUCCUGCAGCGGACGAAACAGC [UGCAGC]
*A* 1.77

*Q* Respond only with normalized RNA/DNA level without ligand (log10) recorded for GCUGUCACCGAGAAACUGUGAAGUAUAUCUUAAACCUGGGCACUUAAAAGAUAUAUGGAGUUAGUAGUGCAACCUGCUCGGUCUGAUGAGUCCAUAGUUGGACGAAACAGC [AUAGUU]
*A* 1.54

*Q* Respond only with normalized RNA/DNA level without ligand (log10) recorded for GCUGUCACCGAGAAACUGUGAAGUAUAUCUUAAACCUGGGCACUUAAAAGAUAUAUGGAGUUAGUAGUGCAACCUGCUCGGUCUGAUGAGUCCUCUCGUGGACGAAACAGC [UCUCGU]
*A* 1.69
